System: CAL-85-1
ASSAY_DETAILS: drug sensitivity score (DSS), CellTiter-Glo (DSS (AUC-based score)); higher = stronger drug effect (viability inhibition or cytotoxicity); extreme values may be limits of the assay
TEST_SETTINGS: incubation time: 72 h
Consider the following compounds and their measured drug sensitivity score readings.
REPORTED_METRIC: drug sensitivity score

> print(dat)
                                smiles.text         reported.metric  result.number
1  O=C(Cc1ccc(-c2ccc(OCCN3CCOCC3)cc2)cn1)NCc1ccccc1  drug sensitivity score           18.5
2  CCc1cncnc1N1CCN(Cc2nc3ccc(C(F)(F)F)cc3[nH]2)CC1  drug sensitivity score              0
3  CC(=O)Nc1cccc(-n2c(=O)n(C3CC3)c(=O)c3c(Nc4ccc(I)cc4F)n(C)c(=O)c(C)c32)c1  drug sensitivity score           6.58
4  COc1cc2nccc(Oc3ccc(NC(=O)Nc4cc(C)on4)c(Cl)c3)c2cc1OC  drug sensitivity score              0
5  Nc1ccccc1NC(=O)c1ccc(CNC(=O)OCc2cccnc2)cc1  drug sensitivity score           1.24
6  C=CCc1cccc(/C=N/NC(=O)CN2CCN(Cc3ccccc3)CC2)c1O  drug sensitivity score              3
7  C[C@H]1C[C@@H]2[C@H]([C@@H](O)C[C@@]3(C)[C@H]2CC[C@]3(O)C(=O)CO)[C@@]2(C)C=CC(=O)C=C12  drug sensitivity score              0
8  CCCS(=O)(=O)Nc1ccc(F)c(C(=O)c2c[nH]c3ncc(-c4ccc(Cl)cc4)cc23)c1F  drug sensitivity score          0.555

---

Measured normalised viability by item
Tested on: MDA-MB-453
ASSAY_DETAILS: normalised viability (% of control), CellTiter-Blue; higher = more viable cells (about 100 = DMSO control)
TEST_SETTINGS: 1000 nM; incubation time: 72 h
REPORTED_METRIC: normalised viability (%)

> print(dat)
                                smiles.text  units.symbol  result.number
1  CC[C@H](Nc1ncnc2[nH]cnc12)c1nc2cccc(F)c2c(=O)n1-c1ccccc1             %           87.7
2  Nc1nc2[nH]cc(CCc3ccc(C(=O)N[C@@H](CCC(=O)O)C(=O)O)cc3)c2c(=O)[nH]1             %            104
3                 Oc1ncc(N(CCCl)CCCl)c(O)n1             %            101
4  C[C@H]1C[C@@H]2[C@H]([C@@H](O)C[C@@]3(C)[C@H]2CC[C@]3(O)C(=O)CO)[C@@]2(C)C=CC(=O)C=C12             %           69.3
5  CC1=C(/C=C/C(C)=C/C=C/C(C)=C/C(=O)O)C(C)(C)CCC1             %            117
6  Cc1ccc(-c2cc(C(F)(F)F)nn2-c2ccc(S(N)(=O)=O)cc2)cc1             %            103

---

Tested on: CAL-85-1
ASSAY_DETAILS: normalised viability (% of control), CellTiter-Blue; higher = more viable cells (about 100 = DMSO control)
TEST_SETTINGS: 100 nM; incubation time: 72 h

COMPOUND	normalised viability
O=C(Cc1ccc(-c2ccc(OCCN3CCOCC3)cc2)cn1)NCc1ccccc1	34.2%
COc1cc([C@@H]2c3cc4c(cc3[C@@H](O[C@@H]3O[C@@H]5CO[C@@H](c6cccs6)O[C@H]5[C@H](O)[C@H]3O)[C@H]3COC(=O)[C@H]23)OCO4)cc(OC)c1O [Teniposide]	94.5%
Nc1nc2[nH]cc(CCc3ccc(C(=O)N[C@@H](CCC(=O)O)C(=O)O)cc3)c2c(=O)[nH]1	101%
C1CN1c1nc(N2CC2)nc(N2CC2)n1	108%
NCCCNCCSP(=O)(O)O	87.2%
N#Cc1ccc(C(c2ccc(C#N)cc2)n2cncn2)cc1	87.1%
Nc1nc(F)nc2c1ncn2[C@@H]1O[C@H](CO)[C@@H](O)[C@@H]1O	92.8%
CCc1cncnc1N1CCN(Cc2nc3ccc(C(F)(F)F)cc3[nH]2)CC1	101%
C=CC(=O)Nc1cc2c(Nc3ccc(F)c(Cl)c3)ncnc2cc1OCCCN1CCOCC1	64.2%
CCCS(=O)(=O)Nc1ccc(F)c(C(=O)c2c[nH]c3ncc(-c4ccc(Cl)cc4)cc23)c1F	87.2%
CCN(CC)CCCC(C)Nc1c2ccc(Cl)cc2nc2ccc(OC)cc12 (stereo unspecified)	105%
